Below is a list of entries, each paired with its recorded glycan array binding signal (z-score) value.
system: GlcNAc(b1-3)Gal(b1-4)GlcNAc(b1-3)Gal(b1-4)GlcNAc(b1-3)GalNAc
test description: glycan array binding signal (z-score within array); higher = stronger binding
experimental conditions: glycan notation: IUPAC condensed, linker removed
Shown is part of a subset that was picked to be rich in the strongest signals.

binder	glycan array binding signal (z-score)
HPL (Tachypleus tridentatus) (protein) MEDDCTCVTDRSLEGKLMKHPSTPAVYQILDGCRRLVPNPPTYNNIYKNWECIQSNILEKLLCKCDSLSNGAELIKGSGDTVYLLSNGVKRPIADPETFNGFCFDWNKIKTYSDIVINSLSTGPIIIIKHHHHHH	-0.251
VLRB.aGPA.23-GCN4-biotin (Petromyzon marinus) (protein) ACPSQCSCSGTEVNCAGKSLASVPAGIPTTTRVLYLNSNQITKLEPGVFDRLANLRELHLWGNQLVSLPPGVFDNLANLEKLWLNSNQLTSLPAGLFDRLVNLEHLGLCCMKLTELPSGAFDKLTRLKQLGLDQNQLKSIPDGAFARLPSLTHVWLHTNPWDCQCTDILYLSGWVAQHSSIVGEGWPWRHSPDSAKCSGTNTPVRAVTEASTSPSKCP	-0.084
Gal 8 (Mus musculus), Q9JL15 (protein) MGGSHHHHHHGMASMLSLNNLQNIIYNPIIPYVGTITEQLKPGSLIVIRGHVPKDSERFQVDFQLGNSLKPRADVAFHFNPRFKRSSCIVCNTLTQEKWGWEEITYDMPFRKEKSFEIVFMVLKNKFQVAVNGRHVLLYAHRISPEQIDTVGIYGKVNIHSIGFRFSSASALPHTLGDLQSMETSALGLTQINRENIQKPGKLQLSLPFEARLNASMGPGRTVVIKGEVNTNARSFNVDLVAGKTRDIALHLNPRLNVKAFVRNSFLQDAWGEEERNITCFPFSSGMYFEMIIYCDVREFKVAINGVHSLEYKHRFKDLSSIDTLSVDGDIRLLDVRSW	0.651
